molecular target: KRAS G12D and SOS1 proteins (Homo sapiens, UniProt Q07889); assay: KRAS-G12D/SOS1 binding assay (HTRF); settings: Tag1-SOS1 / Tag2-KRAS G12D, 10 μM GTP
Sequence (Q07889 whole entry, stated change not applied): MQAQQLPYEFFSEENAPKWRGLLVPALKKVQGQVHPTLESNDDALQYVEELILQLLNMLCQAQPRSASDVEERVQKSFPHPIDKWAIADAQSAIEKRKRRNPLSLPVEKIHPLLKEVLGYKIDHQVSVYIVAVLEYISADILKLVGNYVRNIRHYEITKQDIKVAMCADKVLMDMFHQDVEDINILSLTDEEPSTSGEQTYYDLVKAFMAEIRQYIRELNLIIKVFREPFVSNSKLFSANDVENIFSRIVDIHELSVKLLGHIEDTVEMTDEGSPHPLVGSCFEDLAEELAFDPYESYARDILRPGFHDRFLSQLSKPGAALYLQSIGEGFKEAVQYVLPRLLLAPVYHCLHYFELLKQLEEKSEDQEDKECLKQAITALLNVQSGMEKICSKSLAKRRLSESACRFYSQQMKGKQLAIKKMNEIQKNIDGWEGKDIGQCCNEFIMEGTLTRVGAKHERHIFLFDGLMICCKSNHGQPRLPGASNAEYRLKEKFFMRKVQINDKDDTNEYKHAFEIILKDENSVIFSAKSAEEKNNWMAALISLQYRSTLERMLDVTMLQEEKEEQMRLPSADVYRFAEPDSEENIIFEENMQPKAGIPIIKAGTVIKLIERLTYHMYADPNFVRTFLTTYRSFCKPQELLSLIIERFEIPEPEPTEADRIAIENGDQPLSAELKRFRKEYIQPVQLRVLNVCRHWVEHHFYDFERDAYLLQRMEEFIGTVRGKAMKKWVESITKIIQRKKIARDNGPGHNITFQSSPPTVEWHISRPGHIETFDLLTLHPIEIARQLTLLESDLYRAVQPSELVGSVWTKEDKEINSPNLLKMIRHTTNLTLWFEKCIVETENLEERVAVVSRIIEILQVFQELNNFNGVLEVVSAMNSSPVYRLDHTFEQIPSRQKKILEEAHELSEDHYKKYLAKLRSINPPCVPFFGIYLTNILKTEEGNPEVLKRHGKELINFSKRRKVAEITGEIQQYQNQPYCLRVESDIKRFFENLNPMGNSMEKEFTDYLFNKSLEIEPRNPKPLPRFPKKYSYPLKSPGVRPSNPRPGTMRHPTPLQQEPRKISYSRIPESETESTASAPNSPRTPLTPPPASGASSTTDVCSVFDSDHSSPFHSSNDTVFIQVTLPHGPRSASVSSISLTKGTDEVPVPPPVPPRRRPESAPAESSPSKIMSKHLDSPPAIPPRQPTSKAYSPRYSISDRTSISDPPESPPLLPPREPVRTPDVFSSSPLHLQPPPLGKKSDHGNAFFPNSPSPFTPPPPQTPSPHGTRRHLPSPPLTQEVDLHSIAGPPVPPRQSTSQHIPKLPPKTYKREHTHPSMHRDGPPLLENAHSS
Quantity Measured: IC50

Known IC50 results, listed for orientation:
Compound	Quantity Measured	Value Reported
Cc1nc(N[C@H](C)c2cccc(C(F)(F)CO)c2)c2cc(O[C@H]3CCOC3)c3c(cnn3C)c2n1 [Example 38]	IC50	< 100 nM
Cc1nc(N[C@H](C)c2cc(N)cc(C(F)(F)F)c2)c2cc(O[C@H]3CCOC3)c3c(cnn3C)c2n1 [Example 37]	IC50	< 100 nM
C[C@@H](Nc1nc2ccnn2c2cc(=O)n([C@H]3CCOC3)cc12)c1cccc(C(F)(F)CO)c1 [Example 72]	IC50	< 100 nM

Please give IC50, item by item, for the list that follows.
1. CC(=O)N1CCC(n2cc3c(N[C@H](C)c4cccc(C(F)(F)CO)c4)nc4ccnn4c3cc2=O)CC1 [Example 75]
2. COc1cc2c(cc1C1CCN(C(C)=O)CC1)c(N[C@H](C)c1cccc3c1CCC3(F)F)nc1ccnn12 [Example 52]
3. C[C@@H](Nc1nc2ccnn2c2cc(=O)n(C3(C)CC3)cc12)c1cccc2c1CCC2(F)F [Example 62]

< 100 nM
100 to 500 nM
< 100 nM

====

molecular target: KRAS G12D and SOS1 proteins (Homo sapiens, UniProt Q07889); assay: KRAS-G12D/SOS1 binding assay (HTRF); details: Tag1-SOS1 / Tag2-KRAS G12D, 10 μM GTP
Quantity Measured: IC50

Here are 6 compounds together with their reported answers.
Compound	Value Reported
COc1cc2c(cc1C1CCN(S(C)(=O)=O)CC1)c(N[C@H](C)c1cccc3c1CCC3(F)F)nc1ccnn12 [Example 53]	0.1 to 0.5 µM
C[C@@H](Nc1nc2ccnn2c2cc(=O)n(C3(C)CC3)cc12)c1cccc(C(F)(F)CO)c1 [Example 61]	< 0.1 µM
COCC(=O)N1CCC(c2cc3c(N[C@H](C)c4cccc5c4CCC5(F)F)nc(C)nc3n3cnnc23)CC1 [Example 10]	< 0.1 µM
COc1cc2c(cc1-c1ccc(=O)n(C)c1)c(N[C@H](C)c1cccc(C(F)(F)CO)c1)nc1ccnn12 [Example 45]	< 0.1 µM
CC(=O)N1CCC(c2cc3c(N[C@H](C)c4cc(C(C)(C)O)cc(C(F)(F)F)c4)nc(C)nc3n3cnnc23)CC1 [Example 13]	> 5 µM
Cc1nc(N[C@H](C)c2cccc(C(F)(F)CO)c2)c2cc(O[C@H]3CCN(C)C3)c3c(cnn3C)c2n1 [Example 41]	< 0.1 µM

CC(=O)N1CCC(Oc2cc3c(N[C@H](C)c4cccc5c4CCC5(F)F)nc(C)nc3c3cnn(C)c23)CC1 [Example 40] on KRAS G12D and SOS1 proteins (Homo sapiens, UniProt Q07889) gives IC50 = < 0.1 µM

Data origin: patent US20240109891A1
